# Test system: HCT-116
# protocol: Inhibition of TNF-alpha-induced Nuclear factor-kappa-B dependent transcriptional activity in human HCT116 cells assessed normalized inhibitory ratio of at 10 uM for 12 hrs by NF-kappaB cis-acting luciferase reporter gene assay relative to untreated control
# Type: cell-based
Assignment: determine reported Ratio for the given molecules.
Write the value as a bare number.

**Query** Give Ratio for this entry on HCT-116: COc1cc(OC)c2c(=O)c(-c3cccc(Cl)c3)coc2c1
**Result** 0.63

**Query** Provide Ratio, recorded with HCT-116, of Cc1c(O)ccc2c(=O)c(-c3ccc(Cl)cc3)coc12
**Result** 1.04

**Query** Write down measured Ratio (HCT-116) for this molecule. COc1ccc2c(=O)c(-c3ccccc3)coc2c1C
**Result** 0.23

**Query** State recorded Ratio with HCT-116, entry COc1cc(OC)c2c(=O)c(-c3ccc(Br)cc3)coc2c1 , no comment.
**Result** 0.25

**Query** Determine reported Ratio for COc1ccc(-c2coc3cc(OC)c(OC)cc3c2=O)cc1OC ; test system: HCT-116.
**Result** 0.4

**Query** Quote Ratio with test system HCT-116 for Cc1cc2occ(-c3ccc(Cl)cc3Cl)c(=O)c2cc1Cl
**Result** 0.27
